Source listed as patent US20240415914A1.

Assay type: physicochemical
Conditions: stored at room temperature (21-25° C.), day 3
Reported Property: Stability in Powder Concentrate (content by LCMSMS) (mg/g powder)

Molecule: CC(=O)Oc1c(C)c(C)c2c(c1C)CCC(C)(CCC[C@H](C)CCC[C@H](C)CCCC(C)C)O2 (stereo partly drawn) [α-Tocopheryl acetate]
Test Result: 2.18
--
Molecule: CCCCCc1cc(O)c(C/C=C(\C)CCC=C(C)C)c(O)c1
Test Result: 1.09
--
Molecule: C=C(C)[C@@H]1CCC(C)=C[C@H]1c1c(O)cc(CCCCC)cc1O [CBD, cannabidiol, reference compound]
Test Result: 5.81
--
Molecule: Cc1c(C)c2c(c(C)c1OC(=O)CCC(=O)O)CC[C@@](C)(CCC[C@H](C)CCC[C@H](C)CCCC(C)C)O2 [α-Tocopheryl succinate]
Test Result: 1.81
